- experimentalSystem: PD-L1 His protein / PD-1 Fc protein (Homo sapiens (Human), UniProt Q9NZQ7)
- Sequence (Q9NZQ7 19-238): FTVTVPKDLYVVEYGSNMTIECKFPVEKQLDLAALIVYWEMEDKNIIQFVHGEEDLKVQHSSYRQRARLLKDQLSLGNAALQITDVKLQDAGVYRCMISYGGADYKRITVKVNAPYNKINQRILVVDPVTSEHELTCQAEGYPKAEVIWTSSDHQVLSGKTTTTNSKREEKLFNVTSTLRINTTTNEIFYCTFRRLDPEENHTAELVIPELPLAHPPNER
- procedureDetails: HTRF Assay (PD-1/PD-L1 interaction)
- Assay type: binding
- conditionDetails: PD-L1 His 6 nM, PD-1 Fc 6 nM
propertyName: IC50 (pM)
Write the answer as a number in pM, unit excluded.

INSERT INTO results (smilesnotation, propertyname, numericresult) VALUES
  ('COc1cc(-c2nccc(-c3cccc(-c4ccc(CN5CC6(C5)CN(C(C)=O)C6)c(OC)n4)c3C)c2C)ccc1CN1CC2(C1)CN(C(C)=O)C2', 'IC50', 6600);

Give a short answer stating reported IC50 for COc1cc(-c2nccc(-c3cccc(-c4ccc5c(CN(C)C6CCN(C(C)=O)CC6)cn(C)c5n4)c3Cl)c2Cl)ccc1CN1CC2(CNC(=O)C2)C1 . 520

Quote IC50 reported for CNCc1ccc(-c2cccc(-c3ccnc(-c4cc(CNCCC(=O)O)cc(OC)c4)c3Cl)c2Cl)nc1OC please. 730

Read the entry COCC(=O)N1CCC(NCc2ccc(-c3nccc(-c4cccc(-c5ccc(CNC6CCN(C(C)=O)CC6)c(OC)n5)c4Cl)c3Cl)cc2OC)CC1 and write its reported IC50. 1450

State its IC50: COc1nc(-c2cccc(-c3ccnc(-c4cc5c(=O)n(C)c(CN[C@H]6C[C@](C)(O)C6)nn5c4)c3Cl)c2Cl)cc(Cl)c1CNC[C@@H]1CCC(=O)N1 3000

Specify reported IC50 for the compound shown: COc1nc(-c2cccc(-c3ccnc(-c4ccc5c6c(n(C)c5c4)CCN(CCO)C6)c3Cl)c2Cl)ccc1CNC[C@@H]1CCC(=O)N1 640

Item COc1cc(-c2nccc(-c3cccc(-c4ccc(CN5CCC6(CC5)CC(=O)N6)c(OC)n4)c3Cl)c2Cl)ccc1CN1CCC2(CC1)CC(=O)N2 : provide IC50 160

Please give the documented IC50 of COc1nc(-c2cccc(-c3ccnc(-c4ccc5c(CN(C)C6CCN(C(C)=O)CC6)cn(C)c5c4)c3Cl)c2Cl)ccc1CNC[C@@H]1CCC(=O)N1 4000
